Reported DiMf/DiL4 values are given for each entry in this list.
system: D. immitis L4 larvae; assay: Dirofilaria immitis, L4 Stage (DiL4) In Vitro Assay; assay type: cell-based; details: larval stage selectivity, ratio of DiMf MED to DiL4 MED
Simply state the number, no unit and no words.

CC(C)C[C@H]1C(=O)O[C@H](Cc2ccc(Cc3cnccc3C(F)(F)F)cc2)C(=O)N(C)[C@@H](CC(C)C)C(=O)O[C@H](C)C(=O)N(C)[C@@H](CC(C)C)C(=O)O[C@H](Cc2ccc(Cc3cnccc3C(F)(F)F)cc2)C(=O)N(C)[C@@H](CC(C)C)C(=O)O[C@H](C)C(=O)N1C [Example 3-333] ... 17
Cc1ccsc1Cc1ccc(C[C@H]2OC(=O)[C@H](CC(C)C)N(C)C(=O)[C@@H](C)OC(=O)[C@H](CC(C)C)N(C)C(=O)[C@@H](Cc3ccc(Cc4sccc4C)cc3)OC(=O)[C@H](CC(C)C)N(C)C(=O)[C@@H](C)OC(=O)[C@H](CC(C)C)N(C)C2=O)cc1 [Example 3-44] ... 1000
CCc1ncncc1Cc1ccc(C[C@H]2OC(=O)[C@H](CC(C)C)N(C)C(=O)[C@@H](C)OC(=O)[C@H](CC(C)C)N(C)C(=O)[C@@H](Cc3ccc(Cc4cncnc4CC)cc3)OC(=O)[C@H](CC(C)C)N(C)C(=O)[C@@H](C)OC(=O)[C@H](CC(C)C)N(C)C2=O)cc1 [Example 3-310] ... 0.3

Input: Note down DiMf/DiL4 recorded for CCn1nccc1Cc1ccc(C[C@H]2OC(=O)[C@H](CC(C)C)N(C)C(=O)[C@@H](C)OC(=O)[C@H](CC(C)C)N(C)C(=O)[C@@H](Cc3ccc(Cc4ccnn4CC)cc3)OC(=O)[C@H](CC(C)C)N(C)C(=O)[C@@H](C)OC(=O)[C@H](CC(C)C)N(C)C2=O)cc1 [Example 3-253]
Output: 0.3

Input: Note down DiMf/DiL4 recorded for CC(C)C[C@H]1C(=O)O[C@H](Cc2ccc([C@H](O)c3sccc3Br)cc2)C(=O)N(C)[C@@H](CC(C)C)C(=O)O[C@H](C)C(=O)N(C)[C@@H](CC(C)C)C(=O)O[C@H](Cc2ccc([C@@H](O)c3sccc3Br)cc2)C(=O)N(C)[C@@H](CC(C)C)C(=O)O[C@H](C)C(=O)N1C [Example 3-132]
Output: 25

Input: Note down DiMf/DiL4 recorded for CC(C)C[C@H]1C(=O)O[C@H](Cc2ccc(Cc3ccco3)cc2)C(=O)N(C)[C@@H](CC(C)C)C(=O)O[C@H](C)C(=O)N(C)[C@@H](CC(C)C)C(=O)O[C@H](Cc2ccccc2)C(=O)N(C)[C@@H](CC(C)C)C(=O)O[C@H](C)C(=O)N1C [Example 4-32]
Output: 3

Input: Note down DiMf/DiL4 recorded for CCOc1ncccc1Cc1ccc(C[C@H]2OC(=O)[C@H](CC(C)C)N(C)C(=O)[C@@H](C)OC(=O)[C@H](CC(C)C)N(C)C(=O)[C@@H](Cc3ccc(Cc4cccnc4OCC)cc3)OC(=O)[C@H](CC(C)C)N(C)C(=O)[C@@H](C)OC(=O)[C@H](CC(C)C)N(C)C2=O)cc1 [Example 3-165]
Output: 200

----------
test system: D. immitis L4 larvae; experiment: Dirofilaria immitis, L4 Stage (DiL4) In Vitro Assay; type: cell-based; conditions: larval stage selectivity, ratio of DiMf MED to DiL4 MED
Reported DiMf/DiL4 values are given for each entry in this list.

A selection of reference data follows.
COc1cccc(Cc2ccc(C[C@H]3OC(=O)[C@H](CC(C)C)N(C)C(=O)[C@@H](C)OC(=O)[C@H](CC(C)C)N(C)C(=O)[C@@H](Cc4ccc(Cc5cccc(OC)c5)cc4)OC(=O)[C@H](CC(C)C)N(C)C(=O)[C@@H](C)OC(=O)[C@H](CC(C)C)N(C)C3=O)cc2)c1 ... 500
Cc1csc(Cc2ccc(C[C@H]3OC(=O)[C@H](CC(C)C)N(C)C(=O)[C@@H](C)OC(=O)[C@H](CC(C)C)N(C)C(=O)[C@@H](Cc4ccc(Cc5cc(C)cs5)cc4)OC(=O)[C@H](CC(C)C)N(C)C(=O)[C@@H](C)OC(=O)[C@H](CC(C)C)N(C)C3=O)cc2)c1 ... 100
CC(C)C[C@H]1C(=O)O[C@H](Cc2ccc(Cc3cncc(F)c3)cc2)C(=O)N(C)[C@@H](CC(C)C)C(=O)O[C@H](C)C(=O)N(C)[C@@H](CC(C)C)C(=O)O[C@H](Cc2ccc(Cc3cncc(F)c3)cc2)C(=O)N(C)[C@@H](CC(C)C)C(=O)O[C@H](C)C(=O)N1C ... 1
CC(C)C[C@H]1C(=O)O[C@H](Cc2ccc(Cc3ccnc(F)c3F)cc2)C(=O)N(C)[C@@H](CC(C)C)C(=O)O[C@H](C)C(=O)N(C)[C@@H](CC(C)C)C(=O)O[C@H](Cc2ccc(Cc3ccnc(F)c3F)cc2)C(=O)N(C)[C@@H](CC(C)C)C(=O)O[C@H](C)C(=O)N1C ... 100

Input: Note down DiMf/DiL4 recorded for `CC(C)C[C@H]1C(=O)O[C@H](Cc2ccc(Cc3cnco3)cc2)C(=O)N(C)[C@@H](CC(C)C)C(=O)O[C@H](C)C(=O)N(C)[C@@H](CC(C)C)C(=O)O[C@H](Cc2ccc(Cc3cnco3)cc2)C(=O)N(C)[C@@H](CC(C)C)C(=O)O[C@H](C)C(=O)N1C`
Output: 3.3

Input: Note down DiMf/DiL4 recorded for `Cc1nnsc1Cc1ccc(C[C@H]2OC(=O)[C@H](CC(C)C)N(C)C(=O)[C@@H](C)OC(=O)[C@H](CC(C)C)N(C)C(=O)[C@@H](Cc3ccc(Cc4snnc4C)cc3)OC(=O)[C@H](CC(C)C)N(C)C(=O)[C@@H](C)OC(=O)[C@H](CC(C)C)N(C)C2=O)cc1`
Output: 4

Input: Note down DiMf/DiL4 recorded for `COc1ccnc(Cc2ccc(C[C@H]3OC(=O)[C@H](CC(C)C)N(C)C(=O)[C@@H](C)OC(=O)[C@H](CC(C)C)N(C)C(=O)[C@@H](Cc4ccc(Cc5nccc(OC)n5)cc4)OC(=O)[C@H](CC(C)C)N(C)C(=O)[C@@H](C)OC(=O)[C@H](CC(C)C)N(C)C3=O)cc2)n1`
Output: >4.3

Input: Note down DiMf/DiL4 recorded for `CC(C)C[C@H]1C(=O)O[C@H](Cc2ccc(Cc3occc3C#N)cc2)C(=O)N(C)[C@@H](CC(C)C)C(=O)O[C@H](C)C(=O)N(C)[C@@H](CC(C)C)C(=O)O[C@H](Cc2ccc(Cc3occc3C#N)cc2)C(=O)N(C)[C@@H](CC(C)C)C(=O)O[C@H](C)C(=O)N1C`
Output: 10

Input: Note down DiMf/DiL4 recorded for `Cc1ncccc1Cc1ccc(C[C@H]2OC(=O)[C@H](CC(C)C)N(C)C(=O)[C@@H](C)OC(=O)[C@H](CC(C)C)N(C)C(=O)[C@@H](Cc3ccccc3)OC(=O)[C@H](CC(C)C)N(C)C(=O)[C@@H](C)OC(=O)[C@H](CC(C)C)N(C)C2=O)cc1`
Output: 2.5

Input: Note down DiMf/DiL4 recorded for COC(c1ccc(C[C@H]2OC(=O)[C@H](CC(C)C)N(C)C(=O)[C@@H](C)OC(=O)[C@H](CC(C)C)N(C)C(=O)[C@@H](Cc3ccc(C(OC)c4ccc(O)nc4)cc3)OC(=O)[C@H](CC(C)C)N(C)C(=O)[C@@H](C)OC(=O)[C@H](CC(C)C)N(C)C2=O)cc1)c1ccc(O)nc1 (some centres unmarked)
Output: 20

Input: Note down DiMf/DiL4 recorded for `CC(C)C[C@H]1C(=O)O[C@H](Cc2ccc(Cc3cncs3)cc2)C(=O)N(C)[C@@H](CC(C)C)C(=O)O[C@H](C)C(=O)N(C)[C@@H](CC(C)C)C(=O)O[C@H](Cc2ccc(Cc3cncs3)cc2)C(=O)N(C)[C@@H](CC(C)C)C(=O)O[C@H](C)C(=O)N1C`
Output: 0.7

Input: Note down DiMf/DiL4 recorded for `Cc1c[nH]c(C)c1Cc1ccc(C[C@H]2OC(=O)[C@H](CC(C)C)N(C)C(=O)[C@@H](C)OC(=O)[C@H](CC(C)C)N(C)C(=O)[C@@H](Cc3ccccc3)OC(=O)[C@H](CC(C)C)N(C)C(=O)[C@@H](C)OC(=O)[C@H](CC(C)C)N(C)C2=O)cc1`
Output: 100

Input: Note down DiMf/DiL4 recorded for COc1ncccc1C(C)c1ccc(C[C@H]2OC(=O)[C@H](CC(C)C)N(C)C(=O)[C@@H](C)OC(=O)[C@H](CC(C)C)N(C)C(=O)[C@@H](Cc3ccc(C(C)c4cccnc4OC)cc3)OC(=O)[C@H](CC(C)C)N(C)C(=O)[C@@H](C)OC(=O)[C@H](CC(C)C)N(C)C2=O)cc1 (some centres unmarked)
Output: >300

Input: Note down DiMf/DiL4 recorded for COc1cccc(C(C)(F)c2ccc(C[C@H]3OC(=O)[C@H](CC(C)C)N(C)C(=O)[C@@H](C)OC(=O)[C@H](CC(C)C)N(C)C(=O)[C@@H](Cc4ccc(C(C)(F)c5cccc(OC)n5)cc4)OC(=O)[C@H](CC(C)C)N(C)C(=O)[C@@H](C)OC(=O)[C@H](CC(C)C)N(C)C3=O)cc2)n1 (some centres unmarked)
Output: 429
